biological target: tooth pellicle (thin film derived from salivary glycoproteins, formed in a human mouth) (human); experiment: ELISA, 20 uM biotinylated peptide on pellicle-coated bovine enamel, streptavidin-HRP, normalized to DenP03; no-peptide control -0.001
Where no end group is shown, it is not given here. The star is where a group is joined. Biotin = O=C1N[C@H]2[C@H](CS[C@H]2CCCCC(=O)*)N1
PROPERTY_NAME: O.D.450 (normalized)

Examples with their reported O.D.450 (normalized) follow.
BINDER | O.D.450 (normalized)
SSRPGPQHVLMQDTHQGYAFDNK(Biotin) [DenP16-A] | 0.309
SSRPQAAQVHMMQHSRPTTK(Biotin) [DenP13-A] | 0.699
SSRPNGNNHTDIPNRSSYTGGSFAK(Biotin) [DenP1-A] | 0.154
SSRPVNPNWVETQALHQPPGNTK(Biotin) [DenP20-A] | 0.59

I = SSRPHKNENIMQYNVNDRWHITPAK(Biotin) [DenP32-A]
II = SSRPTTGSSSQADTSASMSIVPAHK(Biotin) [DenP17-A]
Min O.D.450 (normalized)? I | II Indicate which entry you chose by stating its label. II
(II: 0.143, I: 1.14)
